- Test system: Staphylococcus aureus
- assay_protocol: Bactericidal against methicillin-resistant Staphylococcus aureus ATCC 4330 assessed as inhibition of bacterial growth incubated for 24 hrs by broth dilution method
- Assay type: functional
reported_metric: MBC

> print(dat)
                                    compound         assayed.target  value.observed
 1   O=C(c1c(O)cc(O)c(C(=O)C2CCC2)c1O)C1CCC1  Staphylococcus aureus         4 µg/mL
 2  CCCCC(=O)c1c(O)cc(O)c(C(=O)CC(C)(C)C)c1O  Staphylococcus aureus         4 µg/mL
 3  CC(C)CCC(=O)c1c(O)cc(O)c(C(=O)CCC(C)C)c1O  Staphylococcus aureus         2 µg/mL
 4  O=C(c1c(O)cc(O)c(C(=O)C2CCCCC2)c1O)C1CCCCC1  Staphylococcus aureus         8 µg/mL
 5       CCCCC(=O)c1c(O)cc(O)c(C(=O)CCCC)c1O  Staphylococcus aureus         2 µg/mL
 6             CC(=O)c1c(O)cc(O)c(C(C)=O)c1O  Staphylococcus aureus        32 µg/mL
 7  CC(C)(C)CC(=O)c1c(O)cc(O)c(C(=O)CC(C)(C)C)c1O  Staphylococcus aureus         4 µg/mL
 8   CCCCC(=O)c1c(O)cc(O)c(C(=O)C2CCCCC2)c1O  Staphylococcus aureus         1 µg/mL
 9  O=C(Cc1ccccc1)c1c(O)cc(O)c(C(=O)Cc2ccccc2)c1O  Staphylococcus aureus         8 µg/mL
10  CCCCCCCC(=O)c1c(O)cc(O)c(C(=O)CCCCCCC)c1O  Staphylococcus aureus         1 µg/mL
11  O=C(c1c(O)cc(O)c(C(=O)C2CCCC2)c1O)C1CCCC1  Staphylococcus aureus         4 µg/mL
12   CCCCCCC(=O)c1c(O)cc(O)c(C(=O)CCCCCC)c1O  Staphylococcus aureus         1 µg/mL
13    CCCCC(=O)c1c(O)cc(O)c(C(=O)CCC(C)C)c1O  Staphylococcus aureus         2 µg/mL
14     CCCCCC(=O)c1c(O)cc(O)c(C(=O)CCCCC)c1O  Staphylococcus aureus         2 µg/mL
15  CCCCC(=O)c1c(O)cc(O)c(C(=O)C(C)CC)c1O (stereo unspecified)  Staphylococcus aureus         4 µg/mL
16      CCCCC(=O)c1c(O)cc(O)c(C(=O)C(C)C)c1O  Staphylococcus aureus         8 µg/mL

---

Each record here notes measured MBC.
- System: Staphylococcus aureus
- assay_protocol: Bactericidal activity against methicillin-resistant Staphylococcus aureus ATCC 3392 assessed as inhibition of bacterial growth incubated for 24 hrs by broth dilution method
- Type: functional
reported_metric: MBC (µg/mL)

> print(dat)
                                    molecule  value.observed
 1  CCCCCCCC(=O)c1c(O)cc(O)c(C(=O)CCCCCCC)c1O               2
 2  CCCCC(=O)c1c(O)cc(O)c(C(=O)C(C)CC)c1O (stereo unspecified)               8
 3       CCCCC(=O)c1c(O)cc(O)c(C(=O)CCCC)c1O               4
 4  CC(C)(C)CC(=O)c1c(O)cc(O)c(C(=O)CC(C)(C)C)c1O               4
 5   CCCCCCC(=O)c1c(O)cc(O)c(C(=O)CCCCCC)c1O               1
 6  CC(C)CCC(=O)c1c(O)cc(O)c(C(=O)CCC(C)C)c1O               2
 7    CCCCC(=O)c1c(O)cc(O)c(C(=O)CCC(C)C)c1O               8
 8             CC(=O)c1c(O)cc(O)c(C(C)=O)c1O              64
 9  CCCCC(=O)c1c(O)cc(O)c(C(=O)CC(C)(C)C)c1O               4
10  O=C(Cc1ccccc1)c1c(O)cc(O)c(C(=O)Cc2ccccc2)c1O               8
11      CCCCC(=O)c1c(O)cc(O)c(C(=O)C(C)C)c1O               8
12   O=C(c1c(O)cc(O)c(C(=O)C2CCC2)c1O)C1CCC1               8
13     CCCCCC(=O)c1c(O)cc(O)c(C(=O)CCCCC)c1O               2
14   CCCCC(=O)c1c(O)cc(O)c(C(=O)C2CCCCC2)c1O               4
15  O=C(c1c(O)cc(O)c(C(=O)C2CCCCC2)c1O)C1CCCCC1               2
16  O=C(c1c(O)cc(O)c(C(=O)C2CCCC2)c1O)C1CCCC1               4
